# TEST_PROTOCOL: soluble on expression in E. coli; label from the status in PepcDB or PDB records
OBSERVABLE: soluble on expression in E. coli

Examples with answers:
MGHHHHHHSHMGVTCVSQMPVAEGKSVQQTVELLTRKLEMLGAEKQGTFCVDCETYHTAASTLGSQGQTGKLMYVMHNSEYPLSCFALFENGPCLIADTNFDVLMVKLKGFFQSAKASKIETRGTRYQYCDFLVKVGTVTMGPSARGISVEVEYGPCVVASDCWSLLLEFLQSFLGSHTPGAPAVFGNRHDAVYGPADTMVQYMELFNKIRKQQQVPVAGIR ... soluble
MAHHHHHHMRLILLGAPGAGKGTQANFIKEKFGIPQISTGDMLRAAVKAGTPLGVEAKTYMDEGKLVPDSLIIGLVKERLKEADCANGYLFDGFPRTIAQADAMKEAGVAIDYVLEIDVPFSEIIERMSGRRTHPASGRTYHVKFNPPKVEGKDDVTGEPLVQRDDDKEETVKKRLDVYEAQTKPLITYYGDWARRGAENGLKAPAYRKISGLGAVEEIRARVRRAQVSE ... soluble
MSLKSHVRSFKTYIRDEIIKKGGWVNAHAHADRAFTMTPEKIGIYHSSNLQQKWDLVDEVKRTSSVDDYYARFCQSIELMISQGVTAFGTFVDIDPICEDRAIIAAHKAREVYKHDIILKFANQTLKGVIEPTARKWFDIGAEMVDMIGGLPYRDELDYGRGLEAMDILLDKAKSLGIMCHVHVDQFNNPSEKETEQLCDKTIEHGMEGRVVGIHGISIGSHSKEYRYKLYEKMRKAKMMMIACPMAWIDSNRKEDLMPFHNALTPADEMIPEGITVALGTDNICDYMVPLCEGDLWQELSLLAAGCRFPHLDEMVNIASINGRKVLGLELIEGHHHHHH ... soluble
MSLSPAELHADSIVIDGLIIAKWNRELFEDMRKGGLTAANCTVSVWEGFQATVNNIAASNKLIRDNSDLVIPVRSTADIRKAKEQGKTGILYGFQNAHAFEDQIGYVEVFKQLGVGIVQMCYNTQNLVGTGCYERDGGLSGFGREIVAEMNRVGIMCDLSHVGSKTSEEVILESKKPVCYSHCLPSGLKEHPRNKSDEELKFIADHGGFVGVTMFAPFLKKGIDSTIDDYAEAIEYVMNIVGEDAIGIGTDFTQGHGHDFFEWLTHDKGYARRLTNFGKIVNPLGIRTVGEFPNLTETLLERGMPERVVRKVMGENWVRVLRDVEGHHHHHH ... not soluble
KAPFLILMHRNPDPDAMASAMALKTIFDKWGVSSEIAYGGKIGYDENKAMVNLLSIKLNPIDEINLSRYCSIAVVDSSSSKTLPIDVEDSKLSVIIDHHNDSDIVAKYMDILPEIGATATILTKYLLELEIAPNRDLATALYYAITSDTNYFKRKTSKKDFEAASYLQGLMDPKVLEMIENPDM ... not soluble

Switching to the query record.
Supply measured soluble on expression in E. coli of GMSPQSMLTSPQHPRRTTMVISHGTLSASAEHAAHLRQLLVHIAQATRQEDGCLLYLVSEDLSQPGHFLITEHWDNLGAMHTHLALPGVTQAIDALKHLNVTDLKITAYEAGEAINIMG in your reply.
soluble

Just for reference, the DeepSol protein solubility set is where these values come from.
